- targetOrSystem: GST-ATML1(30-134) (Arabidopsis thaliana) (UniProt Q8RWU4)
- Sequence: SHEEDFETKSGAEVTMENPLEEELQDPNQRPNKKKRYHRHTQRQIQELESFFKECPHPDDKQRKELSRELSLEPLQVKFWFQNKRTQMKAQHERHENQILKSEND
- assayInfo: EMSA
- testSettings: 15 mM Tris pH 7.5, 50 mM NaCl, 0.1 mM DTT, 5% glycerol, 0.1 mM MgCl2, 50 ng/ul carrier DNA, room temperature 30 min; 6% gel in 0.5x TBE at 4 C
measurementKind: binding

ATGTTGATTACCCATATACTTTGCTAGCGGCCGAAATGATCACTTTCATGATTTTTTTTTGCATAGGTTCATAAAACATATATTTACTTTTTTTTAAGGAAATATTAAATAAATGATAGGAACTTAACAAGAGAAGAAATAAATAGGGAGGGAGAATATTTGGAAAGTTGAGCCATATTAATTTCGAAATTCAAATGTATATTGGGAGTGGCACAACCCCACCAACATGCCTTGCTCTCTCTTACAAACCTCATAAATACTAAATTGAAAGCTCGTGGGA (double strand) [MIR171B-F3] : binds
